Catalogue of compounds with associated viscosity
experimental parameters: 353.15 K; 101.33 kPa; Liquid
// return numeric value only (unit: mPa·s, not printed)

CCCCCC[n+]1ccccc1.O=S(=O)([N-]S(=O)(=O)C(F)(F)F)C(F)(F)F [1-hexylpyridinium bis(trifluromethylsulfonyl)imide] ... 13.51
CCCCCCCC[n+]1cccc(C)c1 [1-octyl-3-methylpyridinium] ... 15.02
CCCC[n+]1ccc(C)cc1.O=S(=O)([N-]S(=O)(=O)C(F)(F)F)C(F)(F)F ... 9.54
CCCC[n+]1ccccc1.O=S(=O)([N-]S(=O)(=O)C(F)(F)F)C(F)(F)F [1-butylpyridinium bis[(trifluoromethyl)sulfonyl]imide] ... 10.62

Attention now shifts to the item below.
Lab note: measured viscosity of "CCC[n+]1cccc(C)c1.O=S(=O)([N-]S(=O)(=O)C(F)(F)F)C(F)(F)F" was 9.769
